assay.comment: Determination of compound Cmax and AUC
Type: in vivo
recorded.conditions: rat; Sprague-Dawley rats, oral gavage, serum 0.5-4 h; actual oral dose (mg/kg) given
measurement.kind: AUC

{"molecule": "CN1Cc2c(Cl)cc(Cl)cc2C(c2ccc(S(=O)(=O)NCCOCCOCCNC(=O)NCCOCCOCCNS(=O)(=O)c3ccc(C4CN(C)Cc5c(Cl)cc(Cl)cc54)cc3)cc2)C1 (stereo not drawn)", "AUC": "< 2 ng·h/mL"}
{"molecule": "CN1Cc2c(Cl)cc(Cl)cc2C(c2cccc(S(=O)(=O)NCCOCCOCCOCCNC(=O)CCC(=O)NCCOCCOCCOCCNS(=O)(=O)c3cccc(C4CN(C)Cc5c(Cl)cc(Cl)cc54)c3)c2)C1 (stereo not drawn)", "AUC": "< 2 ng·h/mL"}
{"molecule": "CN1Cc2c(Cl)cc(Cl)cc2C(c2cccc(S(=O)(=O)NCCNC(=O)C(O)C(O)C(=O)NCCNS(=O)(=O)c3cccc(C4CN(C)Cc5c(Cl)cc(Cl)cc54)c3)c2)C1 (stereo not drawn)", "AUC": "< 4 ng·h/mL"}

Incoming: Entry CN1Cc2c(Cl)cc(Cl)cc2[C@H](c2ccc(S(=O)(=O)NCCOCCOCCOCCNC(=O)C(O)C(O)C(=O)NCCOCCOCCOCCNS(=O)(=O)c3ccc([C@@H]4CN(C)Cc5c(Cl)cc(Cl)cc54)cc3)cc2)C1 (single isomer, unassigned) needs its AUC filled in; supply it.
Outgoing: < 5.3 ng·h/mL

Incoming: Entry CN1Cc2c(Cl)cc(Cl)cc2C(c2cccc(S(=O)(=O)NCCOCCOCCNC(=O)c3ccc(C(=O)NCCOCCOCCNS(=O)(=O)c4cccc(C5CN(C)Cc6c(Cl)cc(Cl)cc65)c4)cc3)c2)C1 (stereo not drawn) needs its AUC filled in; supply it.
Outgoing: < 2 ng·h/mL

Incoming: Entry CN1Cc2c(Cl)cc(Cl)cc2C(c2cccc(NC(=O)NCCOCCOCCOCCNC(=O)C(O)C(O)C(=O)NCCOCCOCCOCCNC(=O)Nc3cccc(C4CN(C)Cc5c(Cl)cc(Cl)cc54)c3)c2)C1 (stereo not drawn) needs its AUC filled in; supply it.
Outgoing: < 5 ng·h/mL

Incoming: Entry C/C(=C\c1cc(F)c(Oc2ccc(S(=O)(=O)NCCOCCOCCOCCNC(=O)[C@H](O)[C@@H](O)C(=O)NCCOCCOCCOCCNS(=O)(=O)c3ccc(Oc4c(F)cc(/C=C(\C)C(=O)N=C(N)N)cc4F)cc3)cc2)c(F)c1)C(=O)N=C(N)N needs its AUC filled in; supply it.
Outgoing: < 4.4 ng·h/mL

Incoming: Entry C/C(=C\c1cc(F)c(Oc2ccc(S(=O)(=O)NCCOCCOCCOCCOCCOCCOCCN)cc2)c(F)c1)C(=O)N=C(N)N needs its AUC filled in; supply it.
Outgoing: < 3 ng·h/mL

Incoming: Entry CN1Cc2c(Cl)cc(Cl)cc2[C@H](c2cccc(S(=O)(=O)NCCOCCOCCOCCNC(=O)NCCCCNC(=O)NCCOCCOCCOCCNS(=O)(=O)c3cccc([C@@H]4CN(C)Cc5c(Cl)cc(Cl)cc54)c3)c2)C1 (single isomer, unassigned) needs its AUC filled in; supply it.
Outgoing: < 15 ng·h/mL

====

Measured rat NHE-3 Average pIC50 values are reported for all entries that follow.
experimental.system: rat NHE-3 (Rattus norvegicus, UniProt P26433)
Construct: expressed in transfected cells; host or cells: Opossum kidney (OK) cells (ATCC), electroporated
Sequence (P26433 29-831): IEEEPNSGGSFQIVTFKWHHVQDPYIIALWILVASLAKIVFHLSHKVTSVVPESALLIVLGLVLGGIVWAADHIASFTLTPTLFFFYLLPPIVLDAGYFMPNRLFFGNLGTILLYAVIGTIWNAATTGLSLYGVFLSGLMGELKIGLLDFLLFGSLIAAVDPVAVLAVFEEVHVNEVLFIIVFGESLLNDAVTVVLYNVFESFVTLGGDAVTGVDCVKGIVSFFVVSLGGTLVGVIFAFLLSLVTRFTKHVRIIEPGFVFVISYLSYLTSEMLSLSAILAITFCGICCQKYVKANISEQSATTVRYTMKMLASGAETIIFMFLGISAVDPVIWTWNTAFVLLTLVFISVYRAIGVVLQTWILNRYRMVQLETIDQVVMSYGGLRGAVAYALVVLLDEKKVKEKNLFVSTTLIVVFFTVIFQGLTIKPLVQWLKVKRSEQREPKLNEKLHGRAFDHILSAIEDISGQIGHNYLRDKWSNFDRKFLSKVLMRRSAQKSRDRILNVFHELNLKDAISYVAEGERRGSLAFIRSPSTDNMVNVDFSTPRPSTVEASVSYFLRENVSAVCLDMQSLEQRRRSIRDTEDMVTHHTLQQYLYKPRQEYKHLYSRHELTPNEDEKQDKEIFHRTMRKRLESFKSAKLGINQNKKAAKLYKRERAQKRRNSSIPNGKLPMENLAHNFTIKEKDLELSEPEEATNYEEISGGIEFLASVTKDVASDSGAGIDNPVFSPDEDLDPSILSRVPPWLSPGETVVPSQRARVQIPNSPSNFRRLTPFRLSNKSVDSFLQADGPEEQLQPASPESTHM
assay.comment: Cell-based assay of NHE-3 activity (Pharmacological Test Example 1)
recorded.conditions: OK cells expressing rat NHE-3; 0-30 uM test compound, 5 uM EIPA

Field: example entries. Status: answers known.
{"molecule": "N=C(N)N1CCN(c2ccc(-c3nc(N=C(N)N)nc4ccc(Cl)cc34)cc2)CC1 [Example 66]", "measurement.kind": "rat NHE-3 Average pIC50", "result": "6 to 7"}
{"molecule": "CN1Cc2c(Cl)cc(Cl)cc2C(c2ccc(S(=O)(=O)NCCOCCOCCNC(=O)[C@H](O)[C@@H](O)C(=O)NCCOCCOCCNS(=O)(=O)c3ccc(C4CN(C)Cc5c(Cl)cc(Cl)cc54)cc3)cc2)C1 (stereo partly drawn) [Example 207]", "measurement.kind": "rat NHE-3 Average pIC50", "result": "6 to 7"}

Incoming: Entry C/C(=C\c1cc(F)c(Oc2ccc(S(=O)(=O)NCCOCCOCCOCCOCCOCCOCCNC(=O)C(O)C(O)C(=O)NCCOCCOCCOCCOCCOCCOCCNS(=O)(=O)c3ccc(Oc4c(F)cc(/C=C(\C)C(=O)N=C(N)N)cc4F)cc3)cc2)c(F)c1)C(=O)N=C(N)N (stereo not drawn) [Example 104] needs its rat NHE-3 Average pIC50 filled in; supply it.
Outgoing: 6 to 7

====

Measured Cmax values are reported for all entries that follow.
assay.comment: Determination of compound Cmax and AUC
Format: in vivo
recorded.conditions: rat; Sprague-Dawley rats, oral gavage, serum 0.5-4 h; actual oral dose (mg/kg) given

Field: example entries. Status: answers known.
{"molecule": "CN1Cc2c(Cl)cc(Cl)cc2C(c2cccc(S(=O)(=O)NCCOCCOCCOCCNC(=O)c3ccc(C(=O)NCCOCCOCCOCCNS(=O)(=O)c4cccc(C5CN(C)Cc6c(Cl)cc(Cl)cc65)c4)cc3)c2)C1 (stereo not drawn)", "measurement.kind": "Cmax", "result": "< 4 ng/mL"}
{"molecule": "CN1Cc2c(Cl)cc(Cl)cc2C(c2ccc(S(=O)(=O)NCC(=O)NCC(=O)NCC(=O)NCCCCNC(=O)CNC(=O)CNC(=O)CNS(=O)(=O)c3ccc(C4CN(C)Cc5c(Cl)cc(Cl)cc54)cc3)cc2)C1 (stereo not drawn)", "measurement.kind": "Cmax", "result": "< 2 ng/mL"}
{"molecule": "CN1Cc2c(Cl)cc(Cl)cc2C(c2ccc(S(=O)(=O)NCCOCCOCCOCCNC(=O)c3ccc(C(=O)NCCOCCOCCOCCNS(=O)(=O)c4ccc(C5CN(C)Cc6c(Cl)cc(Cl)cc65)cc4)cc3)cc2)C1 (stereo not drawn)", "measurement.kind": "Cmax", "result": "< 2.6 ng/mL"}
{"molecule": "CN1Cc2c(Cl)cc(Cl)cc2C(c2cccc(S(=O)(=O)NCCOCCOCCNC(=O)[C@H](O)[C@@H](O)C(=O)NCCOCCOCCNS(=O)(=O)c3cccc(C4CN(C)Cc5c(Cl)cc(Cl)cc54)c3)c2)C1 (stereo partly drawn)", "measurement.kind": "Cmax", "result": "< 1 ng/mL"}
{"molecule": "CN1Cc2c(Cl)cc(Cl)cc2C(c2cccc(S(=O)(=O)NCCP(=O)(O)O)c2)C1 (stereo not drawn)", "measurement.kind": "Cmax", "result": "21 ng/mL"}

Incoming: Entry C/C(=C\c1cc(F)c(Oc2ccc(S(=O)(=O)NCCN3CCN(CCNS(=O)(=O)c4ccc(Oc5c(F)cc(/C=C(\C)C(=O)N=C(N)N)cc5F)cc4)CC3)cc2)c(F)c1)C(=O)N=C(N)N needs its Cmax filled in; supply it.
Outgoing: 93 ng/mL

Incoming: Entry CN1Cc2c(Cl)cc(Cl)cc2C(c2cccc(NC(=O)NCCOCCOCCOCCNC(=O)C(O)C(O)C(=O)NCCOCCOCCOCCNC(=O)Nc3cccc(C4CN(C)Cc5c(Cl)cc(Cl)cc54)c3)c2)C1 (stereo not drawn) needs its Cmax filled in; supply it.
Outgoing: < 5.4 ng/mL

Incoming: Entry CN1Cc2c(Cl)cc(Cl)cc2C(c2cccc(S(=O)(=O)NCCNC(=O)C(O)C(O)C(=O)NCCNS(=O)(=O)c3cccc(C4CN(C)Cc5c(Cl)cc(Cl)cc54)c3)c2)C1 (stereo not drawn) needs its Cmax filled in; supply it.
Outgoing: < 3.5 ng/mL

Incoming: Entry CN1Cc2c(Cl)cc(Cl)cc2[C@@H](c2ccc(S(=O)(=O)NCCOCCOCCOCCNC(=O)C(O)C(O)C(=O)NCCOCCOCCOCCNS(=O)(=O)c3ccc([C@H]4CN(C)Cc5c(Cl)cc(Cl)cc54)cc3)cc2)C1 (single isomer, unassigned) needs its Cmax filled in; supply it.
Outgoing: < 3 ng/mL

Incoming: Entry CN1Cc2c(Cl)cc(Cl)cc2C(c2cccc(S(=O)(=O)NCCOCCOCCOCCNC(=O)CCC(=O)NCCOCCOCCOCCNS(=O)(=O)c3cccc(C4CN(C)Cc5c(Cl)cc(Cl)cc54)c3)c2)C1 (stereo not drawn) needs its Cmax filled in; supply it.
Outgoing: < 2 ng/mL

Incoming: Entry CN1Cc2c(Cl)cc(Cl)cc2C(c2ccc(S(=O)(=O)NCCOCCOCCNC(=O)COCC(=O)NCCOCCOCCNS(=O)(=O)c3ccc(C4CN(C)Cc5c(Cl)cc(Cl)cc54)cc3)cc2)C1 (stereo not drawn) needs its Cmax filled in; supply it.
Outgoing: < 2 ng/mL

Incoming: Entry CN1Cc2c(Cl)cc(Cl)cc2C(c2cccc(S(=O)(=O)NCCOCCOCCNC(=O)NCCOCCOCCNS(=O)(=O)c3cccc(C4CN(C)Cc5c(Cl)cc(Cl)cc54)c3)c2)C1 (stereo not drawn) needs its Cmax filled in; supply it.
Outgoing: < 5 ng/mL

Incoming: Entry CN1Cc2c(Cl)cc(Cl)cc2C(c2ccc(S(=O)(=O)NCCOCCOCCNC(=O)NCCOCCOCCNS(=O)(=O)c3ccc(C4CN(C)Cc5c(Cl)cc(Cl)cc54)cc3)cc2)C1 (stereo not drawn) needs its Cmax filled in; supply it.
Outgoing: < 2 ng/mL

Incoming: Entry CN1Cc2c(Cl)cc(Cl)cc2[C@H](c2cccc(S(=O)(=O)NCCOCCOCCOCCNC(=O)NCCCCNC(=O)NCCOCCOCCOCCNS(=O)(=O)c3cccc([C@@H]4CN(C)Cc5c(Cl)cc(Cl)cc54)c3)c2)C1 (single isomer, unassigned) needs its Cmax filled in; supply it.
Outgoing: < 7 ng/mL

Incoming: Entry CN1Cc2c(Cl)cc(Cl)cc2C(c2cccc(S(=O)(=O)NCCOCCOCCOCCOCCOCCOCCOCCOCCOCCOCCN)c2)C1 (stereo not drawn) needs its Cmax filled in; supply it.
Outgoing: < 5 ng/mL

Incoming: Entry CN1Cc2c(Cl)cc(Cl)cc2C(c2ccc(S(=O)(=O)NCCOCCOCCNC(=O)c3cc(N)cc(C(=O)NCCOCCOCCNS(=O)(=O)c4ccc(C5CN(C)Cc6c(Cl)cc(Cl)cc65)cc4)c3)cc2)C1.O=C(O)C(F)(F)F.O=C(O)C(F)(F)F.O=C(O)C(F)(F)F (stereo not drawn) needs its Cmax filled in; supply it.
Outgoing: < 3.4 ng/mL

Incoming: Entry CN1Cc2c(Cl)cc(Cl)cc2C(c2cccc(S(=O)(=O)NCCOCCOCCOCCNC(=O)c3cccc(C(=O)NCCOCCOCCOCCNS(=O)(=O)c4cccc(C5CN(C)Cc6c(Cl)cc(Cl)cc65)c4)c3)c2)C1 (stereo not drawn) needs its Cmax filled in; supply it.
Outgoing: < 5 ng/mL

Incoming: Entry CN1Cc2c(Cl)cc(Cl)cc2C(c2cccc(S(=O)(=O)NCCOCCOCCOCCNC(=O)c3cc(C(=O)NCCOCCOCCOCCNS(=O)(=O)c4cccc(C5CN(C)Cc6c(Cl)cc(Cl)cc65)c4)cc(C(=O)NCCOCCOCCOCCNS(=O)(=O)c4cccc(C5CN(C)Cc6c(Cl)cc(Cl)cc65)c4)c3)c2)C1 (stereo not drawn) needs its Cmax filled in; supply it.
Outgoing: < 2 ng/mL
